// data source = paper PMC12136037

- assayed-system: ~100 representative kinases (Homo sapiens, UniProt P51813)
- Construct: Recombinant protein kinase domains with a concentration of 2 μM
- Sequence (P51813 whole entry, the tested form may be a part): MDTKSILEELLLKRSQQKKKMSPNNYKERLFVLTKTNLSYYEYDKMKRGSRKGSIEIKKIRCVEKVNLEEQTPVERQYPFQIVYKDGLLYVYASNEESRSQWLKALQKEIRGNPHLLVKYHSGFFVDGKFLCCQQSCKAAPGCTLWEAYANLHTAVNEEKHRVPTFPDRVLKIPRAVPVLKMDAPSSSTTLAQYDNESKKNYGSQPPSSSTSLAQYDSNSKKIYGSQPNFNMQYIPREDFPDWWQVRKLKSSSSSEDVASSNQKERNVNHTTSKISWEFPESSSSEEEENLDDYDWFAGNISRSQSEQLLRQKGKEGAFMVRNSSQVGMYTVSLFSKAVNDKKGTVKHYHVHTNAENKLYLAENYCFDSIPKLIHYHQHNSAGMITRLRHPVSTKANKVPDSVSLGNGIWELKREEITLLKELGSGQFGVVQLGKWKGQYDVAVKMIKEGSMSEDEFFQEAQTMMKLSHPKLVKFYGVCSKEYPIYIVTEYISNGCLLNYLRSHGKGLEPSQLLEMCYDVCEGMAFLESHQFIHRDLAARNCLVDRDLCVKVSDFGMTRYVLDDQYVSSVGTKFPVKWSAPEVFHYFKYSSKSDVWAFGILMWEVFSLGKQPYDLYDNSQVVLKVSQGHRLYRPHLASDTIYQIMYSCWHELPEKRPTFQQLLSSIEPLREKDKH
- method-notes: DSF 100 kinase selectivity screen;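 for dTm: compound tested at 20 µM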
- Format: binding
- condition-details: Protein BMX; average of three replicates
parameter-measured: dTm (K)

The following compounds have reported results that may help.
COc1cc(S(C)(=O)=O)ccc1Nc1nc(N(C)C)c2c(Cl)c[nH]c2n1    -0.17
CCc1ccc(NC(=O)C2(C(=O)Nc3cccc(-c4c[nH]c5ncnc(N6CCOCC6)c45)c3)CC2)cc1    0.11
O=C(Nc1cccc(-c2c[nH]c3ncnc(N4CCOCC4)c23)c1)C1(C(=O)Nc2ccc(F)c(F)c2)CC1    0.61
CC(C)(C)c1cccc(NC(=O)C2(C(=O)Nc3cccc(-c4c[nH]c5ncnc(N6CCOCC6)c45)c3)CC2)c1    1.67
Cc1cc(NC(=O)C2(C(=O)Nc3ccc(F)cc3)CC2)cc(-c2c[nH]c3ncnc(N4CCOCC4)c23)c1    0.51

a = Cc1cc(NC(=O)C2(C(=O)Nc3cccc(-c4c[nH]c5ncnc(N6CCOCC6)c45)c3)CC2)ccc1F
b = O=C(Nc1cccc(-c2c[nH]c3ncnc(N4CCOCC4)c23)c1)C1(C(=O)Nc2ccc(F)cc2F)CC1
c = O=C(Nc1ccccc1)C1(C(=O)Nc2cccc(-c3c[nH]c4ncnc(N5CCOCC5)c34)c2)CC1
d = Cc1ccc(NC(=O)C2(C(=O)Nc3cccc(-c4c[nH]c5ncnc(N6CCOCC6)c45)c3)CC2)cc1
e = COc1cc(C(=O)N2CCOCC2)c(F)cc1Nc1nc(N(C)C)c2c(Cl)c[nH]c2n1
# rank_down: sort by dTm, max first Give your ranking as a list of the labels in the requested order.
a, c, b, d, e
(a: 1.40 K, c: 0.86 K, b: 0.22 K, d: 0.15 K, e: -0.34 K)

A = O=C(Nc1cccc(-c2c[nH]c3ncnc(N4CCOCC4)c23)c1)C1(C(=O)Nc2cc(Br)c(F)cc2F)CC1
B = CC(=O)N1CCN(c2nc(Cl)nc3[nH]cc(-c4cccc(NC(=O)Nc5cc(C(C)(C)C)nn5-c5ccc(C)cc5)c4)c23)CC1
C = O=C(Nc1cc(F)cc(Br)c1)C1(C(=O)Nc2cccc(-c3c[nH]c4ncnc(N5CCOCC5)c34)c2)CC1
D = Cc1cc(F)ccc1NC(=O)C1(C(=O)Nc2cccc(-c3c[nH]c4ncnc(N5CCOCC5)c34)c2)CC1
Descending sort on dTm required. Sort and list the labels as requested.
A, C, D, B

a = O=C(Nc1ccc(F)cc1)C1(C(=O)Nc2cccc(-c3c[nH]c4ncnc(N5CCOCC5)c34)c2)CC1
b = O=C(Nc1cccc(-c2c[nH]c3ncnc(N4CCOCC4)c23)c1)C1(C(=O)Nc2cccc3c2CCC3)CC1
Field: entry with larger dTm (options a / b ). // return label of chosen record
b

---

- assayed-system: ~100 representative kinases (Homo sapiens)
- Construct: Recombinant protein kinase domains with a concentration of 2 μM
- method-notes: DSF 100 kinase selectivity screen;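 for dTm: compound tested at 20 µM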
- Format: binding
- condition-details: Protein TAF1; DSF; average of three replicates
parameter-measured: dTm (K)

O=C(Nc1cccc(-c2c[nH]c3ncnc(N4CCOCC4)c23)c1)c1cccn(-c2ccc(F)cc2)c1=O [Compound 4]    -0.36
COc1cc2c(Oc3ccc(NC(=O)C4(C(=O)Nc5ccc(F)cc5)CC4)cc3F)ccnc2cc1OCCCN1CCOCC1 [Foretinib, reference compound]    0.54

A = Cc1cc(NC(=O)C2(C(=O)Nc3ccc(F)cc3)CC2)cc(-c2c[nH]c3ncnc(N4CCOCC4)c23)c1 [Compound 6]
B = Cc1ccc(-n2nc(C(C)(C)C)cc2NC(=O)Nc2cccc(-c3c[nH]c4ncnc(N5CCOCC5)c34)c2)cc1 [Compound 29]
Which of the two gives a bigger number for dTm: A or B ? State the label of the item chosen.
A
(A: 0.30 K, B: -10.70 K)

---

- assayed-system: ~100 representative kinases (Homo sapiens, UniProt P00519)
- Construct: Recombinant protein kinase domains with a concentration of 2 μM
- Sequence (P00519 whole entry, the tested form may be a part): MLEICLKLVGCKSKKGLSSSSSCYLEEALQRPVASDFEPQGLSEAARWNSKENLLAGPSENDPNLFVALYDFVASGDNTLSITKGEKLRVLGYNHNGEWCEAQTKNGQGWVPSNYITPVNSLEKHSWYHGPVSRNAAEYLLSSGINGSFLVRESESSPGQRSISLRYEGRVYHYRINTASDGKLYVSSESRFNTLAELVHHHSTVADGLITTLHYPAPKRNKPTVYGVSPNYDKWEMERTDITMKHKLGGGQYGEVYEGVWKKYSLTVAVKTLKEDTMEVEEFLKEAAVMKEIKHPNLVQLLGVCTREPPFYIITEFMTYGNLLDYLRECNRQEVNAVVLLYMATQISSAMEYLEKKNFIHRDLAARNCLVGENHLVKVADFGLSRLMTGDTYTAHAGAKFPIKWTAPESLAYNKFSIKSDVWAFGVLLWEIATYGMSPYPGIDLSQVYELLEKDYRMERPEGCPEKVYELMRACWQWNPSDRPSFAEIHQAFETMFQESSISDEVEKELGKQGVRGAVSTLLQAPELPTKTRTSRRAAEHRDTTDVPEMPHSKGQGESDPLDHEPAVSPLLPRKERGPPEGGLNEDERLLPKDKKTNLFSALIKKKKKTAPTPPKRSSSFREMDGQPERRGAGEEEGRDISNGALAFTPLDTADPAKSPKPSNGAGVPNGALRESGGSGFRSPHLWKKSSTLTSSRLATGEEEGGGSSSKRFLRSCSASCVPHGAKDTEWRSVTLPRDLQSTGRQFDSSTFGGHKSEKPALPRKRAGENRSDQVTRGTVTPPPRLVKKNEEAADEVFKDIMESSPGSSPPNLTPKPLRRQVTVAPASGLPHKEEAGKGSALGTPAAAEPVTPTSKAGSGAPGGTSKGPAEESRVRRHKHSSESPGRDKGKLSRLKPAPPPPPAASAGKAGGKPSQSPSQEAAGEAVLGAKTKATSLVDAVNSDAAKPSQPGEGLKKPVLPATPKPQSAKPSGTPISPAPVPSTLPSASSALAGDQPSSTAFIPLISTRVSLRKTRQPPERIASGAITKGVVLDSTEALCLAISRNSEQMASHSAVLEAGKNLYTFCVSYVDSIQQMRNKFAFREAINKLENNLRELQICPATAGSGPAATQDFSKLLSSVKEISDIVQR
- method-notes: DSF 100 kinase selectivity screen;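 for dTm: compound tested at 20 µM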
- Type: binding
- condition-details: Protein ABL1; average of three replicates
parameter-measured: dTm (K)

The following compounds have reported results that may help.
Cc1cc(F)ccc1NC(=O)C1(C(=O)Nc2cccc(-c3c[nH]c4ncnc(N5CCOCC5)c34)c2)CC1    1.15
Cc1ccc(-n2nc(C(C)(C)C)cc2NC(=O)Nc2cccc(-c3c[nH]c4nc(Cl)nc(N5CCOCC5)c34)c2)cc1    2.41
Cc1ccc(-n2nc(C(C)(C)C)cc2NC(=O)Nc2cccc(-c3c[nH]c4ncnc(N5CCOCC5)c34)c2)cc1    10.07
COc1ccc(NC(=O)C2(C(=O)Nc3cccc(-c4c[nH]c5ncnc(N6CCOCC6)c45)c3)CC2)cc1    1.06
COc1cc2c(Oc3ccc(NC(=O)C4(C(=O)Nc5ccc(F)cc5)CC4)cc3F)ccnc2cc1OCCCN1CCOCC1 [Foretinib, reference compound]    13.44
Cc1cc(NC(=O)C2(C(=O)Nc3cccc(-c4c[nH]c5ncnc(N6CCOCC6)c45)c3)CC2)ccc1F    2.29
COc1cc(S(C)(=O)=O)ccc1Nc1nc(N(C)C)c2c(Cl)c[nH]c2n1    0.38
O=C(Nc1cccc(-c2c[nH]c3ncnc(N4CCOCC4)c23)c1)C1(C(=O)Nc2cc(Br)c(F)cc2F)CC1    1.76
O=C(Nc1ccc(F)cc1)C1(C(=O)Nc2cccc(-c3c[nH]c4ncnc(N5CCOCC5)c34)c2)CC1    1.47
Cc1cc(NC(=O)C2(C(=O)Nc3ccc(F)cc3)CC2)cc(-c2c[nH]c3ncnc(N4CCOCC4)c23)c1    1.02

1 = Cc1ccc(NC(=O)C2(C(=O)Nc3cccc(-c4c[nH]c5ncnc(N6CCOCC6)c45)c3)CC2)cc1
2 = COc1cc(NC(=O)C2(C(=O)Nc3cccc(-c4c[nH]c5ncnc(N6CCOCC6)c45)c3)CC2)ccc1F
3 = CC(=O)N1CCN(c2nc(Cl)nc3[nH]cc(-c4cccc(NC(=O)Nc5cc(C(C)(C)C)nn5-c5ccc(C)cc5)c4)c23)CC1
Put the items in sequence by dTm, from largest down. Your reply should list the labels following the order given in the request.
3, 1, 2
(3: 2.73 K, 1: 1.79 K, 2: 1.21 K)

---

- Tested on: ~100 representative kinases
- method-notes: DSF 100 kinase selectivity screen;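 for dTm: compound tested at 20 µM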
- Type: binding
- condition-details: number of proteins of the DSF panel with dTm >5K
parameter-measured: # >5K

Reference set (2 entries):
CCc1ccc(NC(=O)C2(C(=O)Nc3cccc(-c4c[nH]c5ncnc(N6CCOCC6)c45)c3)CC2)cc1    23
C[C@@H]1CN(c2cc(-c3n[nH]c4ccc(OC5(C)CC5)cc34)ncn2)C[C@H](C)O1    2

A = COc1cc(S(C)(=O)=O)ccc1Nc1nc(N(C)C)c2c(Cl)c[nH]c2n1
B = O=C(Nc1cccc(-c2c[nH]c3ncnc(N4CCOCC4)c23)c1)C1(C(=O)Nc2ccc(F)c(F)c2)CC1
# min-compare on # >5K between A and B Give the label of your selection.
A
(A: 5, B: 32)

---

- assayed-system: ~100 representative kinases (Homo sapiens)
- Construct: Recombinant protein kinase domains with a concentration of 2 μM
- method-notes: DSF 100 kinase selectivity screen;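 for dTm: compound tested at 20 µM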
- Type: binding
- condition-details: protein NEK1; average of three replicates
parameter-measured: dTm (K)

A selection of reference data follows.
O=C(Nc1cccc(-c2c[nH]c3ncnc(N4CCOCC4)c23)c1)C1(C(=O)Nc2ccc(F)cc2F)CC1    -0.14
O=C(Nc1ccc(Cl)cc1)C1(C(=O)Nc2cccc(-c3c[nH]c4ncnc(N5CCOCC5)c34)c2)CC1    0.54
Cc1ccc(-n2nc(C(C)(C)C)cc2NC(=O)Nc2cccc(-c3c[nH]c4nc(Cl)nc(N5CCOCC5)c34)c2)cc1    -0.84
COc1cc2c(Oc3ccc(NC(=O)C4(C(=O)Nc5ccc(F)cc5)CC4)cc3F)ccnc2cc1OCCCN1CCOCC1 [Foretinib, reference compound]    0.60

1 = CC(=O)N1CCN(c2nc(Cl)nc3[nH]cc(-c4cccc(NC(=O)Nc5cc(C(C)(C)C)nn5-c5ccc(C)cc5)c4)c23)CC1
2 = O=C(Nc1cccc(-c2c[nH]c3ncnc(N4CCOCC4)c23)c1)C1(C(=O)Nc2cccc3c2CCC3)CC1
3 = O=C(Nc1cccc(-c2c[nH]c3ncnc(N4CCOCC4)c23)c1)c1cccn(-c2ccc(F)cc2)c1=O
Provide the items ranked by increasing dTm. As an answer, provide the labels arranged in the order called for.
2, 1, 3
(2: -2.39 K, 1: -1.20 K, 3: -0.47 K)

---

- assayed-system: ~100 representative kinases (Homo sapiens)
- Construct: Recombinant protein kinase domains with a concentration of 2 μM
- method-notes: DSF 100 kinase selectivity screen;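 for dTm: compound tested at 20 µM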
- Format: binding
- condition-details: protein FGFR2; average of three replicates
parameter-measured: dTm (K)

Illustrative cases are given below, each with its answer.
O=C(Nc1ccccc1)C1(C(=O)Nc2cccc(-c3c[nH]c4ncnc(N5CCOCC5)c34)c2)CC1 [Compound 12]    2.56
Cc1ccc(NC(=O)C2(C(=O)Nc3cccc(-c4c[nH]c5ncnc(N6CCOCC6)c45)c3)CC2)cc1 [Compound 14]    1.78
O=C(Nc1cccc(-c2c[nH]c3ncnc(N4CCOCC4)c23)c1)C1(C(=O)Nc2ccc(F)c(Br)c2F)CC1 [Compound 26]    3.74

A = CC(C)(C)c1cccc(NC(=O)C2(C(=O)Nc3cccc(-c4c[nH]c5ncnc(N6CCOCC6)c45)c3)CC2)c1 [Compound 22]
B = O=C(Nc1cccc(-c2c[nH]c3ncnc(N4CCOCC4)c23)c1)c1cccn(-c2ccc(F)cc2)c1=O [Compound 4]
C = Cc1cc(NC(=O)C2(C(=O)Nc3ccc(F)cc3)CC2)cc(-c2c[nH]c3ncnc(N4CCOCC4)c23)c1 [Compound 6]
D = Cc1ccc(-n2nc(C(C)(C)C)cc2NC(=O)Nc2cccc(-c3c[nH]c4nc(Cl)nc(N5CCOCC5)c34)c2)cc1 [Compound 30]
Returns the items ordered by dTm, from maximum to minimum. Submit the labels in the order that the ranking request calls for.
B, A, C, D
